system: MILI (PIWIL2) piRISC loaded with L1MC piRNA (26 nt); experiment: pre-steady-state target cleavage rate (min^-1); guide: L1MC piRNA 5'p-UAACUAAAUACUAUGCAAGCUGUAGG; MIWI and MILI are mouse PIWI proteins and EfPiwi is from a freshwater sponge; tags in brackets are library labels; higher = faster piRNA-guided slicing of the target; conditions: auxiliary factor: 500 nM mouse GTSF1;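 also: 1 nM active piRISC with 0.1 nM target library at 33 °C single turnover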
For each record, write down the corresponding pre-steady-state target cleavage rate.
Answers are plain numbers.

These solved cases illustrate the format of a correct answer.
1) UCCUGGAACAGCUUGCAUACUAUUUACUUA	0.0611
2) UCCUGCUACAGCUUGCAUACAUUUUAGUUA	0.0121
3) UCCUGGAACGCUUGCAUAGUAUUUAGUUA	0.239
4) UCCUCCUACAGUCUUGCAUAGUAUUUAGUUA	0.252

State recorded pre-steady-state target cleavage rate for all listed sequences.
1. UCCUCCUACAGCUUGCAUUCUAUUUUCAAA
2. UCCUCCUUCAGCUUGCAUAGUAUUAAGUUA
3. UCCUCCUACAGCUUGCAAUCUAUUUACAAA
4. UCCUCCUAGAGCUUGCAUAGUAAUUAGUUA

Reply:
[0.0147, 0.155, 0.0157, 0.264]

State recorded pre-steady-state target cleavage rate for all listed sequences.
1. UCCUGGAACAGCUUGCAUAGUAAUUAGUAA
2. UCCUGGAACAGCUUGCAUUGUAUUUAGUUA
3. UCCUGGAUGAGCUUCGAUAGUAUUUAGUUA
4. UCCUCCUACAGCUUGCUAGUAUUUAGUUA
5. UCCUGGAUCUGCUUGCUUAGUAUUUAGUUA
6. UCCUCCUACAGCAUGCAUAGUAUUUAGAUA

Reply:
1: 0.108; 2: 0.18; 3: 0.108; 4: 0.037; 5: 0.238; 6: 0.176
